Reported log10 IC50 against Serine/threonine-protein kinase PLK1 (Homo sapiens, UniProt P53350), gathered from multiple publications, appears below.
Sequence (P53350 whole entry): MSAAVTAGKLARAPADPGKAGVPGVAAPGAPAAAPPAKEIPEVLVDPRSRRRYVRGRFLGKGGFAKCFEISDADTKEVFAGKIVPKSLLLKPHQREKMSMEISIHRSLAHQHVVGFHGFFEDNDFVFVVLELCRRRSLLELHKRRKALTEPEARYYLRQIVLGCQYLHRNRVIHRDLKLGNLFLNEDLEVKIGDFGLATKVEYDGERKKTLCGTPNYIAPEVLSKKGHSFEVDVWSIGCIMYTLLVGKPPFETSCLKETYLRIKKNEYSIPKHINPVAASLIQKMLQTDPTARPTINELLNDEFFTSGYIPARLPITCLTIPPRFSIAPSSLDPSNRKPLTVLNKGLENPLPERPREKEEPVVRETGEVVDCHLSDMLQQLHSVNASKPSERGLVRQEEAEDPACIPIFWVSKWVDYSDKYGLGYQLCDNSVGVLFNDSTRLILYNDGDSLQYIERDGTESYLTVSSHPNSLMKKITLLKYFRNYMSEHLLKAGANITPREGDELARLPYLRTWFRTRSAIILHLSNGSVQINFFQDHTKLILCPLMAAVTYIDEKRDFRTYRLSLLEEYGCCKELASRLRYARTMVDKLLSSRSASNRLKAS
Parameter value (number): base-10 log of IC50 in µM.

Please review the entries below; each comes with its answer.
COc1cc2ncn(-c3cc(OCc4ccccc4C#N)c(C(N)=O)s3)c2cc1OC; -2.22
COc1cc(Nc2ncc3c(C)nc(-c4ccccc4[N+](=O)[O-])n3n2)cc(OC)c1OC; 0.30

Record log10 IC50 per entry; entries follow.
1. CC(Oc1cc(-n2cnc3cc(OC4CCN(C)CC4)ccc32)ccc1C(N)=O)c1ccccc1C(F)(F)F (racemic)
2. COc1ccc2c3cc[n+](CCCc4ccccc4)c(C)c3n(Cc3cccc(Cl)c3)c2c1
3. COc1cc2ncn(-c3cc(OCc4ccc(S(C)(=O)=O)cc4)c(C(N)=O)s3)c2cc1OC
4. Cc1cc(C)cc(-n2nc(C)c3cnc(N[C@@H](C)c4ccccc4)cc32)c1
5. O=C(CCNC(=O)c1ccc(CO)cc1)N[C@@H](Cc1cnnn1CCc1ccccc1)C(=O)NCc1cn(CCP(=O)(O)O)nn1
6. CN1CCN(c2ccc(OC(F)(F)F)c(Nc3nccc(-c4cc(C(N)=O)cn4CCO)n3)c2)CC1
7. O=C1Cc2cnc(Nc3ccc(O)c(Cl)c3)nc2-c2cnccc2N1

OUTPUT:
[1.94, -0.05, -0.90, -0.83, 0.53, -0.82, 0.15]

====

Reported pIC50 against Serine/threonine-protein kinase PLK1 (Homo sapiens, UniProt P53350), gathered from multiple publications, appears below.
Numbers only, as −log10 of the molar value.

Please review the entries below; each comes with its answer.
Cc1cc(Nc2nc(Nc3ccccc3S(=O)(=O)C(C)C)c3c(C)[nH]nc3n2)c(OC(C)C)cc1C1CCN(C)CC1; 5.41
COc1ccccc1COc1cc(-n2cnc3ccccc32)sc1C(N)=O; 7.92
COc1ccc(CNc2ccnc3oc4ccccc4c23)cc1; 3.57

INPUT: If you can, please state the reported pIC50 value of O=C(CCNC(=O)c1ccc(CO)cc1)N[C@@H](Cc1cnnn1CCCCCCCCc1ccccc1)C(=O)NCc1cnnn1CCP(=O)(O)O .
OUTPUT: 5.47

====

Reported IC50 against Serine/threonine-protein kinase PLK1 (Homo sapiens, UniProt P53350), gathered from multiple publications, appears below.
Answers are plain numbers, in nM.

Please review the entries below; each comes with its answer.
COc1ccc(COc2cc(-n3cnc4cc(OC)c(OC)cc43)sc2C(N)=O)cc1; 13
NC(=O)c1sc2c([n+]1[O-])C(SC[C@H](N)C(=O)O)C(SC(F)(F)F)=CC2[N+](=O)[O-] (some centres undefined); 400
CCOc1cc(C(=O)NC2CCN(C)CC2)ccc1Nc1ncc2c(n1)N(C1CCCC1)[C@H](CC)C(=O)N2C; 12
COc1cc2ncn(-c3cc(OCC4CCCO4)c(C(N)=O)s3)c2cc1OC (centres undefined); 251

INPUT: If you can, please state the reported IC50 value of Nc1ccccc1NC(=O)/C=C/c1ccc(-c2ccc3ncnc(Nc4ccc(OCc5cccc(F)c5)c(Cl)c4)c3c2)cc1 .
OUTPUT: 6200

====

Reported pIC50 against Serine/threonine-protein kinase PLK1 (Homo sapiens), gathered from multiple publications, appears below.
Numbers only, as −log10 of the molar value.

Please review the entries below; each comes with its answer.
C=CCn1c(=O)c2cnc(Nc3ccc(N4CCN(C)CC4)cc3)nc2n1-c1cccc(C(C)(C)O)n1; 6.57
CC(C)(O)c1cccc(-n2cc(F)c3cnc(Nc4ccc(C(=O)NC5CCOCC5)cc4)nc32)n1; 8.05
CC(Oc1cc(-n2cnc3cc(OCCCN(C)C)ccc32)ccc1C(N)=O)c1ccccc1C(F)(F)F (racemic); 4.82

// next entry
INPUT: If you can, please state the reported pIC50 value of CN1CCC(NC(=O)c2ccc(Nc3ncc4c(F)cn(-c5cccc(C(C)(C)O)n5)c4n3)cc2)CC1 .
OUTPUT: 7.54
